Hello, the source for this data is PubChem BioAssay (NCI), in case you need it.

The compounds listed here are annotated with their growth inhibition.
# MEASUREMENT DESCRIPTION: NCI Yeast Anticancer Drug Screen. Data for the mec2-1 strain (AID 157)
# TEST CONDITIONS: S. cerevisiae mec2-1 strain, at 1.2 µM, active compounds read high
Compounds without any hit were thinned out: in the full panel of roughly 79,000, 15% have a hit.
Provide only the numeric value, understood in %.

// growth inhibition lookup, compound = `CSc1nc(C)c(CCOC(C)=O)c(N=P(c2ccccc2)(c2ccccc2)c2ccccc2)n1` , result: 12

* * *

# MEASUREMENT DESCRIPTION: NCI Yeast Anticancer Drug Screen. Data for the rad18 strain (AID 177)
# TEST CONDITIONS: S. cerevisiae rad18 mutant growth inhibition; at 33.0 µM
This is part of a sample that, as a whole, favours compounds with a hit. Of some 79,000 tested, about 15% had one in any assay. Active and inactive are the calls of the source. Rule as the data show it: active = growth inhibition above about 70%; inactive = the rest.
Outcome (select one): true (1) for active, false (0) for inactive

Consider the worked cases shown below.
CC(=O)ON=C1C=CC(=C(C#N)c2ccc(Cl)cc2)C=C1; false (0)
CCCCCOC(=S)SC(=O)OCC; true (1)
OCc1ccccc1Cc1ccccc1; false (0)
O=C(/C=C(/c1ccccc1)N1CCCCC1)c1ccccc1; false (0)
N#CC(C#N)=NNc1ccc(S(=O)(=O)O)cc1; false (0)

How was CN(C)c1ccc(C2CC(C)(O)Oc3cc4c(cc32)OCO4)cc1 (stereo not drawn) classified in this test?
true (1)

How was `Cc1nc2ccc(N=NN(C)C)cc2[nH]1` classified in this test?
true (1)

How was O=C(O)C1CC(c2ccccc2)=NN1c1ccccc1 (stereo not drawn) classified in this test?
false (0)

How was O=C(NNc1ccccc1)C(O)C(O)C(O)C(O)C(O)CO (stereo not drawn) classified in this test?
false (0)

How was CC1CC[C@]2(C(=O)O)CCC3(C)C(=CC(=O)C4[C@@]5(C)CCC(=O)C(C)(C)C5CC[C@]43C)[C@@H]2[C@H]1C (stereo partly drawn) classified in this test?
true (1)

How was `NC(=O)C(=O)NNc1ccccc1` classified in this test?
true (1)

How was `Cc1ccc(S/C(=C\C(=O)O)c2ccccc2)cc1` classified in this test?
false (0)

How was `Cc1ccc2c3ccc4c(c3n(C)c2c1)C(=O)C=CC4=O` classified in this test?
false (0)

How was `CN(C)/C=C/c1nnc([N+](=O)[O-])s1` classified in this test?
false (0)

How was `Oc1ccc(-c2nc(-c3ccc(F)cc3)c(-c3ccc4ccccc4n3)[nH]2)cc1` classified in this test?
true (1)

How was `CC(C)OC(=O)Nc1ccc2nc(-c3cscn3)[nH]c2c1` classified in this test?
false (0)

* * *

# MEASUREMENT DESCRIPTION: NCI Yeast Anticancer Drug Screen. Data for the sgs1 strain (AID 173);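 further: 0% = growth of vehicle-only control cultures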
# TEST CONDITIONS: S. cerevisiae sgs1 mutant, at 11.0 µM, active compounds read high
About 79,000 compounds went through this panel and 15% of them were active in at least one assay; those are over-represented in the sample as a whole.
PROPERTY: growth inhibition (%)
Provide only the numeric value, understood in %.

Known growth inhibition results, listed for orientation:
CCCCCCCCCCCC(O)S(=O)(=O)O (stereo unspecified); -12
CCCCN(CCCC)C(=O)/C=C/c1ccccc1; 8
COc1cc(/C=C2\CCC/C(=C\c3ccc(O)c(OC)c3)C2=O)ccc1O; 3
Cc1ccc2c3ccc4c(c3n(C)c2c1)C(=O)C=CC4=O; -16
Nc1nc(N)c2nc(CNc3ccc(C(=O)NC(CCC(=O)O)C(=O)O)cc3F)cnc2n1 (stereo unspecified); 15
Cc1cc2cc3cc(C)c(N)cc3nc2cc1N; 0
Cc1cccc2c1nc1ccc(Cl)cc1[n+]2C; 89
CCC(C)OC(=O)Nc1ccc(C)c(NC(=O)OC(C)CC)c1 (stereo unspecified); -5
CC1=CC(=C(c2ccc(N)cc2)c2ccc(N)cc2)C=CC1=N; 4
Cc1cc(N(CCOS(C)(=O)=O)CCOS(C)(=O)=O)ccc1C=Nc1ccc(-c2nc(Cc3ccccc3)sc2C)cc1; 66

Read the next record carefully.
// growth inhibition lookup, molecule = `CCOC(=O)c1ccc(NC(=O)O/N=C(/Cl)C(C)C)cc1` , result: 28
